Molecular target: T1, hIL-4Rα on cells (human, UniProt P24394 26-825)
T1 sequence: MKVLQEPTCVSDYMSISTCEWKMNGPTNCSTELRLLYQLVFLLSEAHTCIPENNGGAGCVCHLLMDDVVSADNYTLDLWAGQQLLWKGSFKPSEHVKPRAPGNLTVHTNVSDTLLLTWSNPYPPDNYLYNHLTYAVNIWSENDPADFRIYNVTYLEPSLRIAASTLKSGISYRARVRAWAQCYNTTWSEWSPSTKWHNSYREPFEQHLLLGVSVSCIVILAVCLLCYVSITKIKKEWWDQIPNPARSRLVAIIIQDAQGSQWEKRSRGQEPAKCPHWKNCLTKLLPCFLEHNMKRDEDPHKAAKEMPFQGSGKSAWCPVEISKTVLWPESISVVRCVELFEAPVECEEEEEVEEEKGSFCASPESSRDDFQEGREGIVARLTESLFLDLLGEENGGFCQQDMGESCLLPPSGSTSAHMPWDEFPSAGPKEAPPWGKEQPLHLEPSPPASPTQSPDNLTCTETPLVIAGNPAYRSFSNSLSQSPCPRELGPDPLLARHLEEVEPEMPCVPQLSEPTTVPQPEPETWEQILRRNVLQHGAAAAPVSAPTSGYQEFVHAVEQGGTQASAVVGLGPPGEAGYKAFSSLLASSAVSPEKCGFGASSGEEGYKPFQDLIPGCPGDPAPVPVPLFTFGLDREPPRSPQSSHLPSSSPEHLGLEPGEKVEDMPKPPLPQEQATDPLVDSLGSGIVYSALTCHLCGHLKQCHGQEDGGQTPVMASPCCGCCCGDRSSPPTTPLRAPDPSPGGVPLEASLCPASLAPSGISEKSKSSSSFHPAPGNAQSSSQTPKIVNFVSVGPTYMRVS
Assay: cell-based or functional assay
Each entry below carries its reported Inhibition of IL-4 induced TARC IC50.
Hi! Could you send only the number? It should be in nM, unit omitted.

The following binders have reported results that may help.
Construct 13 (mAb422) with IgG1 YTE LALA heavy chain constant region (antibody, V domains shown) VH: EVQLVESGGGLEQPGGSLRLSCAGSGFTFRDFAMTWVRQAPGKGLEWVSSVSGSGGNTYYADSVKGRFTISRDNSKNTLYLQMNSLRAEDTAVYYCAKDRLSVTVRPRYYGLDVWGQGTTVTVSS VL: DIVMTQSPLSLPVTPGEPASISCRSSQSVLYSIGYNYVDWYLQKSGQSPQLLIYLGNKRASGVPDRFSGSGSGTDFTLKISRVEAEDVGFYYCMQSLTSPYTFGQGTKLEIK | 0.179
Construct 38 (mAb471) with IgG1 YTE LALA heavy chain constant region (antibody, V domains shown) VH: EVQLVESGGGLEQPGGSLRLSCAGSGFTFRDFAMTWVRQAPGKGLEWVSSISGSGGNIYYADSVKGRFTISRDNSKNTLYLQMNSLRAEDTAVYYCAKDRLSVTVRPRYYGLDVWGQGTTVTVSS VL: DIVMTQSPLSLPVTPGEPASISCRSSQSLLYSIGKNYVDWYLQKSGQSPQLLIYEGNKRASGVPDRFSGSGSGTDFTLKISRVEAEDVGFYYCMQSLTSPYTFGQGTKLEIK | 0.259
Construct 24 (mAb432) with IgG1 YTE LALA heavy chain constant region (antibody, V domains shown) VH: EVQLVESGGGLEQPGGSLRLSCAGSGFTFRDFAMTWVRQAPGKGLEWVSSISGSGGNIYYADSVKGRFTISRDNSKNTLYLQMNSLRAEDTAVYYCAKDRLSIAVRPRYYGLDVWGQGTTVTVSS VL: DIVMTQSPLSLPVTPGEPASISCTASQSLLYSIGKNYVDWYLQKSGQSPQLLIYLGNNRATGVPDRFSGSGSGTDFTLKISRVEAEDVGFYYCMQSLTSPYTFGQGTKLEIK | 0.222

q: I have this binder here, Construct 31 (mAb443) with IgG1 YTE LALA heavy chain constant region (antibody, V domains shown) VH: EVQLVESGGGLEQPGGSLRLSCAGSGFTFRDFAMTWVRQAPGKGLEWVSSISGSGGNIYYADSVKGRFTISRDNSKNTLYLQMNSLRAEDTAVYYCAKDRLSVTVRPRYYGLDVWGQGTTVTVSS VL: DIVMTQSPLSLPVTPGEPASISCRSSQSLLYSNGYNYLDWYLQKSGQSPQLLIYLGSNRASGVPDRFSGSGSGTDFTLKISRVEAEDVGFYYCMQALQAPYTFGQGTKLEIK , and I need its recorded Inhibition of IL-4 induced TARC IC50.
a: 0.228
